Biological target: Neuronal acetylcholine receptor; alpha3/beta2 (Homo sapiens, UniProt P17787+P32297)
Sequence (P17787 whole entry, one chain of several): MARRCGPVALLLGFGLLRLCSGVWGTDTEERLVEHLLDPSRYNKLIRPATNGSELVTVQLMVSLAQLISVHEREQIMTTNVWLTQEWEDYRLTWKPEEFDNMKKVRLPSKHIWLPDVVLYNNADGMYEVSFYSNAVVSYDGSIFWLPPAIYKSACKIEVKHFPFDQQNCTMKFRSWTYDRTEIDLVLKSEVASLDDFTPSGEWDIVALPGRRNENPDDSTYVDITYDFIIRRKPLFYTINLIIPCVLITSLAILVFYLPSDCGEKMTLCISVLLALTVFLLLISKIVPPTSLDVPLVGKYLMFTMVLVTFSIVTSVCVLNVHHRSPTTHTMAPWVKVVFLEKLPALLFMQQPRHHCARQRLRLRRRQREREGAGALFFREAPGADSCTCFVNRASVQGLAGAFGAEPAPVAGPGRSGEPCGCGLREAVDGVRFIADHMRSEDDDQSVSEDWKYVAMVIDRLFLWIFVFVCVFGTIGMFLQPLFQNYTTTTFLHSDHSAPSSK
Assay: Inhibitory concentration against Nicotinic acetylcholine receptor alpha3-beta2
Format: protein-complex assay
parameter measured: IC50 (nM)
Supply the numeric figure in nM, leaving out any unit text.

Notebook: `CC[C@H](C)[C@H](NC(=O)[C@H](Cc1c[nH]cn1)NC(=O)[C@H](CCC(N)=O)NC(=O)[C@H](CC(N)=O)NC(=O)[C@H](CC(N)=O)NC(=O)CNC(=O)[C@H](C)NC(=O)[C@H](CS)NC(=O)[C@H](C)NC(=O)[C@@H]1CCCN1C(=O)[C@H](Cc1c[nH]cn1)NC(=O)[C@H](CO)NC(=O)[C@H](CS)NC(=O)[C@H](CS)NC(=O)CN)C(=O)N[C@@H](CS)C(N)=O` , IC50 read as 1.1

====

Molecular target: Neuronal acetylcholine receptor; alpha3/beta2 (Homo sapiens, UniProt P17787+P32297)
Experiment: Inhibitory concentration against Nicotinic acetylcholine receptor alpha3-beta2 expressed in xenopus oocytes
Type: cell-based, Oocyte
parameter measured: IC50 (nM)
Value expressed in nM; do not type the unit.

GET /value?item= COc1cc2c3cc1Oc1cccc(c1O)C[C@@H]1c4c(cc(OC)c(O)c4Oc4ccc(cc4)CC3N(C)CC2)CC[N+]1(C)C (stereo partly specified) &field=IC50 returns 2400

====

Molecular target: Neuronal acetylcholine receptor; alpha3/beta4 (Homo sapiens, UniProt P30926+P32297)
Sequence (P30926 whole entry): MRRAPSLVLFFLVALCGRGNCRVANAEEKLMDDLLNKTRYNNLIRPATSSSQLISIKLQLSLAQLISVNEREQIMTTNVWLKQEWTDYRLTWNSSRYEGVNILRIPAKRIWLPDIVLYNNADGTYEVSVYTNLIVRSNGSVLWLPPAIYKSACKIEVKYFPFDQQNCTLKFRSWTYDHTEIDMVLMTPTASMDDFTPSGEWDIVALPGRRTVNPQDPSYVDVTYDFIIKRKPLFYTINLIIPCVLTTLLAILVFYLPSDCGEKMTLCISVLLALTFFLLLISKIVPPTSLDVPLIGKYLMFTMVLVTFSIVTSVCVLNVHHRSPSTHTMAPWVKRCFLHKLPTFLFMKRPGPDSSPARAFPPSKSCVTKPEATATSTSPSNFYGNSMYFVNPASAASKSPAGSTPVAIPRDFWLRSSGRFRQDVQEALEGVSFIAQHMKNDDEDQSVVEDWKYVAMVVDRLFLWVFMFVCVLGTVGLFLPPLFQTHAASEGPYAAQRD
Sequence (P32297 whole entry): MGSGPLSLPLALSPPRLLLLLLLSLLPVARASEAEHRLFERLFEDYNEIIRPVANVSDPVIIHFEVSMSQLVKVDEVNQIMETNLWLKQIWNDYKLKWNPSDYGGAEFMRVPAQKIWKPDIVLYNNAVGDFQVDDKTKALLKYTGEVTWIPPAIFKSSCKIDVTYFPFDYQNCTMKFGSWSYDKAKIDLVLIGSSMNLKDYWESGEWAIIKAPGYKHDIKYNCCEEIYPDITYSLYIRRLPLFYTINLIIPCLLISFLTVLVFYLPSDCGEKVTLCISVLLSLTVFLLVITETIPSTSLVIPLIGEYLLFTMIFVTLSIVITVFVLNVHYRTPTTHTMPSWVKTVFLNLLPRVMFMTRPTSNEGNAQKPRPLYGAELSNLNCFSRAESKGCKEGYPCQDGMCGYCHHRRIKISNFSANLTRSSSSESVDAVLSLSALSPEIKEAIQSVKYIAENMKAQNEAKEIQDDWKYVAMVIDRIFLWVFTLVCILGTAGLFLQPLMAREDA
Assay: Effective concentration against Nicotinic acetylcholine receptor alpha3-beta4
pEC50: −log10 of the molar value.
parameter measured: pEC50

A selection of reference data follows.
COc1ccc(/C=C2\CCCN=C2c2cccnc2)c(OC)c1 [GTS-21]    < 5.00
c1ccc(-c2cnc3c(c2)CC2(CN4CCC2CC4)O3)cc1 (stereo unspecified)    < 4.00
C#Cc1cncc([C@@H]2CCCN2C)c1 [ALTINICLINE]    5.00
O=C(NC1CN2CCC1CC2)c1ccc(-c2ccsc2)s1 (stereo unspecified)    < 5.00
CN[C@@H](C)C/C=C/c1cncc(OC(C)C)c1 [ISPRONICLINE]    < 5.00

Neuronal acetylcholine receptor; alpha3/beta4 (Homo sapiens, UniProt P30926+P32297) assay, molecule O=C(NC1CN2CCC1CC2)c1ccc(-c2ccccn2)s1 (stereo unspecified) , recorded pEC50 = < 5.00

====

Target: Neuronal acetylcholine receptor subunit alpha-7 (Homo sapiens, UniProt P36544)
Sequence (P36544 whole entry): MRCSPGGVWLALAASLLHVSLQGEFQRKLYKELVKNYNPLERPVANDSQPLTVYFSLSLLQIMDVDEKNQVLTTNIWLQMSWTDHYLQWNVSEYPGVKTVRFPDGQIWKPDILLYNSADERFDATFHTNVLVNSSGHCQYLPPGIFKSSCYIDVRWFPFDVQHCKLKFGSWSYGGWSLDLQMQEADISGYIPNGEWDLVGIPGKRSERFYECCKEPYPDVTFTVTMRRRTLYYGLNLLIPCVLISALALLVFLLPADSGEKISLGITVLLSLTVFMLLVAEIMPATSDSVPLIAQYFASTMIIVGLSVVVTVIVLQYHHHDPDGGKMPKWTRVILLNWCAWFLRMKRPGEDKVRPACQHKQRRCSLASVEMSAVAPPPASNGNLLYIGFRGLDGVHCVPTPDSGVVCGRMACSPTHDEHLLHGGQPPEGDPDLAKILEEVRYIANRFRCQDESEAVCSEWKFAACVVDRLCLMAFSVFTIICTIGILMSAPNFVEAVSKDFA
Experiment: Inhibitory concentration against Nicotinic acetylcholine receptor alpha 7
Peptide text beside a SMILES is read from it.
Response field label: string, one of condition met (IC50 strictly below 8000 nM) or condition not met.

CC(NC(C)(C)C)C(=O)c1cccc(Cl)c1 (stereo unspecified)    condition not met

IN: Just wondering, is IC50 of CSCC[C@H](NC(=O)[C@H](CC(N)=O)NC(=O)[C@H](CS)NC(=O)[C@@H]1CCCN1C(=O)[C@H](CCCNC(=N)N)NC(=O)[C@H](CC(=O)O)NC(=O)[C@H](CO)NC(=O)[C@H](CS)NC(=O)[C@H](CS)NC(=O)CN)C(=O)N[C@@H](CC(N)=O)C(=O)N[C@@H](CC(N)=O)C(=O)N1CCC[C@H]1C(=O)N[C@@H](CC(=O)O)C(=O)N[C@@H](Cc1ccc(O)cc1)C(=O)N[C@@H](CS)C(N)=O (H-GCCSDRPCNMNNPDYC-NH2) below 8000 nM?
OUT: condition met

IN: Find out if reported IC50 for CC(C)C[C@H](NC(=O)[C@H](C)NC(=O)[C@H](CS)NC(=O)[C@@H]1CCCN1C(=O)[C@@H]1CCCN1C(=O)[C@H](CC(C)C)NC(=O)[C@H](CO)NC(=O)[C@H](CS)NC(=O)[C@H](CS)NC(=O)CN)C(=O)N[C@@H](CO)C(=O)N[C@@H](CC(N)=O)C(=O)N1CCC[C@H]1C(=O)N[C@@H](CC(=O)O)C(=O)N[C@@H](Cc1ccc(O)cc1)C(=O)N[C@@H](CS)C(N)=O (H-GCCSLPPCALSNPDYC-NH2) is less than 8000 nM
OUT: condition met

IN: Item `CO[C@@H]1CC=C2CCN3CCC4=C(CC(=O)OC4)[C@@]23C1` : IC50 beneath 8000 nM, strictly?
OUT: condition not met

IN: Does the reported IC50 of the following compound sit strictly below 8000 nM? `CC[C@H](C)[C@H](NC(=O)[C@H](Cc1c[nH]cn1)NC(=O)[C@H](CCC(N)=O)NC(=O)[C@H](CC(N)=O)NC(=O)[C@H](CC(N)=O)NC(=O)CNC(=O)[C@H](C)NC(=O)[C@H](CS)NC(=O)[C@H](C)NC(=O)[C@@H]1CCCN1C(=O)[C@H](Cc1c[nH]cn1)NC(=O)[C@H](CO)NC(=O)[C@H](CS)NC(=O)[C@H](CS)NC(=O)CN)C(=O)N[C@@H](CS)C(N)=O`
OUT: condition met

IN: Lab note: IC50 threshold 8000 nM. Does this compound come in strictly under it? COc1cc2c3cc1Oc1cccc(c1O)C[C@@H]1c4c(cc(OC)c(O)c4Oc4ccc(cc4)CC3N(C)CC2)CC[N+]1(C)C (stereo partly specified)
OUT: condition not met

IN: API: query returns whether the compound falls strictly under 8000 nM in IC50. Query: CNC1(C)C2CCC(C2)C1(C)C (stereo unspecified)
OUT: condition not met

IN: Field: below-cutoff. Rule: recorded IC50 strictly less than 8000 nM. Subject: `C[C@H](NC(=O)[C@H](C)NC(=O)[C@H](CS)NC(=O)[C@H](C)NC(=O)[C@@H]1CCCN1C(=O)[C@H](Cc1c[nH]cn1)NC(=O)[C@H](CO)NC(=O)[C@H](CS)NC(=O)[C@H](CS)NC(=O)CNC(=O)CN)C(=O)N[C@@H](CC(N)=O)C(=O)N[C@@H](CC(N)=O)C(=O)N[C@@H](CCC(N)=O)C(=O)N[C@@H](CC(=O)O)C(=O)N[C@@H](Cc1ccc(O)cc1)C(=O)N[C@@H](CS)C(N)=O`
OUT: condition met

IN: Just wondering, is IC50 of CC(C)C[C@H](NC(=O)[C@H](CO)NC(=O)[C@H](CS)NC(=O)[C@H](CS)NC(=O)CN)C(=O)N1CCC[C@H]1C(=O)N1CCC[C@H]1C(=O)N[C@@H](CS)C(=O)N[C@@H](C)C(=O)N[C@@H](C)C(=O)N[C@@H](CC(N)=O)C(=O)N[C@@H](CC(N)=O)C(=O)N1CCC[C@H]1C(=O)N[C@@H](CC(=O)O)C(=O)N[C@@H](Cc1ccc(O)cc1)C(=O)N[C@@H](CS)C(N)=O (H-GCCSLPPCAANNPDYC-NH2) below 8000 nM?
OUT: condition met

IN: Is IC50 of `CN1CCC[C@H]1COc1cnc(Cl)c(-c2ccc(Cl)cc2)c1` strictly below 8000 nM?
OUT: condition not met
